Below, each of the compounds is paired with its reported Cmax value.
test: Pharmacokinetics in ICR mice after intravenous and intragastric administration; format: in vivo; settings: male, ICR, mouse, plasma, po, 5 mg/kg, ICR mice, PO 5 mg/kg, individual animal; read-out: Cmax
The reply should contain only the number, in ng/mL.

Supply reported Cmax belonging to this compound: COc1nc(C2CC2)ncc1-c1nc2c(n1C(C)C)[C@@]1(C(=O)Nc3cc(Cl)ccc31)N(c1cc(Cl)ccc1C)C2=O 4920

More entries:
Supply reported Cmax belonging to this compound: COc1ncc(-c2nc3c(n2C(C)C)[C@@]2(C(=O)Nc4cc(Cl)ccc42)N(c2cc(Cl)ccc2F)C3=O)c(OC)n1 1360

Supply reported Cmax belonging to this compound: COc1cc(OC)c(-c2nc3c(n2C(C)C)[C@@]2(C(=O)Nc4cc(Cl)ccc42)N(c2cc(Cl)cnc2C)C3=O)cn1 1440

Supply reported Cmax belonging to this compound: CCOc1cc(OC)c(-c2nc3c(n2C(C)C)[C@@]2(C(=O)Nc4cc(Cl)ccc42)N(c2cc(Cl)ccc2C)C3=O)cn1 7870

Supply reported Cmax belonging to this compound: COc1ncc(-c2nc3c(n2C(C)C)[C@@]2(C(=O)Nc4cc(Cl)ccc42)N(c2cc(F)cc(Cl)c2)C3=O)c(OC)n1 1590

Supply reported Cmax belonging to this compound: COc1cc(C2CC2)ncc1-c1nc2c(n1C(C)C)[C@@]1(C(=O)Nc3cc(Cl)ccc31)N(c1cc(Cl)ccc1C)C2=O 2380

Supply reported Cmax belonging to this compound: CCOc1cc(OC)c(-c2nc3c(n2C(C)C)[C@@]2(C(=O)Nc4cc(Cl)ccc42)N(c2cc(Cl)ccc2F)C3=O)cn1 3840

Supply reported Cmax belonging to this compound: COc1cc(OC(C)C)ncc1-c1nc2c(n1C(C)C)[C@@]1(C(=O)Nc3cc(Cl)ccc31)N(c1cc(Cl)ccc1C)C2=O 7630

Supply reported Cmax belonging to this compound: COc1cc(OC)c(-c2nc3c(n2C(C)C)[C@@]2(C(=O)Nc4cc(Cl)ccc42)N(c2cc(Cl)ccc2F)C3=O)cn1 1570

Supply reported Cmax belonging to this compound: COc1ccc(-c2nc3c(n2C(C)C)[C@@]2(C(=O)Nc4cc(Cl)ccc42)N(c2cc(Cl)cnc2C)C3=O)c(OC)c1 2430

Value source: patent US11339171B2
